Overview of reported pKd across a group of binders:
measurement.target: T1, PDZ domain of wild type human PALS1 protein (human, UniProt Q8N3R9 256-336)
T1 sequence: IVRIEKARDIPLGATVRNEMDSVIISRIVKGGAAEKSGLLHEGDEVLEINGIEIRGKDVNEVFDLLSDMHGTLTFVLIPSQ
measurement.protocol: SPR
pKd: −log10 of the molar value. No end group written: not given here. *: point of attachment. Biotin = O=C1N[C@H]2[C@H](CS[C@H]2CCCCC(=O)*)N1
assay.metric: pKd

> print(dat)
                                     binder  assay.metric  relation.operator  observed
1  Biotin-VKNLNSSRVPDLLV [SARS-CoV-2 envelope E protein C-terminal tetradecapeptide]           pKd                  =      4.20
2  KNLNSSEGVPDLLV [SARS-CoV-1 envelope E protein C-terminal tetradecapeptide]           pKd                  <      3.30

Values compiled from paper PMC7970798.
